Tested on: EU1
Assay: Cytotoxicity against cancer cell lines (Example 5), EU1
Assay type: cell-based
Settings: Tables 5-12
pIC50: −log10 of the molar value.
experimental endpoint: pIC50

Below are worked cases with known answers.
{"molecule": "O=C(OCc1ccccc1)c1cc(OCc2ccccc2)c2c(c1)C(=O)c1cccc(OCc3ccccc3)c1C2=O [BW-AQ-148]", "test system": "EU1", "pIC50": "< 4.60"}
{"molecule": "C=CCOc1cccc2c1C(=O)c1c(OCC=C)cc(C(=O)N=[N+]=[N-])cc1C2=O [BW-AQ-154]", "test system": "EU1", "pIC50": 5.52}
{"molecule": "O=C1c2cccc(O)c2C(=O)c2c(O)cc(-c3cccs3)cc21 [BW-AQ-140]", "test system": "EU1", "pIC50": 6.16}
{"molecule": "C=CCOc1cccc2c1C(=O)c1c(OCC=C)cc(NC(=O)CI)cc1C2=O [BW-AQ-163]", "test system": "EU1", "pIC50": "< 4.60"}
{"molecule": "COc1cccc2c1C(=O)c1c(OC)cc(NC(=O)CC#N)cc1C2=O [BW-AQ-172]", "test system": "EU1", "pIC50": "< 4.60"}
{"molecule": "C=CCOC(=O)c1cc(OCC=C)c2c(c1)C(=O)c1cccc(OCC=C)c1C2=O [BW-AQ-152]", "test system": "EU1", "pIC50": "< 4.60"}
{"molecule": "CCOc1cccc2c1C(=O)c1c(OCC)cc(NC(=O)CN)cc1C2=O [BW-AQ-166]", "test system": "EU1", "pIC50": "< 4.60"}
{"molecule": "CCOc1cccc2c1C(=O)c1c(OCC)cc(NC(=O)CO)cc1C2=O [BW-AQ-157]", "test system": "EU1", "pIC50": 6.45}

Request: Report pIC50 from EU1 testing of O=C(CBr)Nc1cc(O)c2c(c1)C(=O)c1cccc(OCc3ccccc3)c1C2=O [BW-AQ-127]
Result: 7.08

Request: Answer briefly: pIC50 recorded on EU1 for C=CCOc1cccc2c1C(=O)c1c(OCC=C)cc(N)cc1C2=O [BW-AQ-155]
Result: < 4.60

Request: // output pIC50; input C=CCOc1cccc2c1C(=O)c1c(OCC=C)cc(NC(=O)CN=[N+]=[N-])cc1C2=O [BW-AQ-164] ; system EU1
Result: < 4.60

----------
System: MOLT4
Assay: Cytotoxicity against cancer cell lines (Example 5), Molt4
Type: cell-based
Conditions: Tables 5-12; read-out: IC50 Molt4
pIC50: −log10 of the molar value.
experimental endpoint: pIC50

Here are 8 compounds together with their reported answers.
{"compound": "COc1cccc2c1C(=O)c1c(OC)cc(NC(=O)CCCCl)cc1C2=O [BW-AQ-174]", "pIC50": "< 4.60"}
{"compound": "CCOc1cccc2c1C(=O)c1c(OCC)cc(NC(=O)CO)cc1C2=O [BW-AQ-157]", "pIC50": 6.38}
{"compound": "COc1cccc2c1C(=O)c1c(OC)cc(NC(=O)CC#N)cc1C2=O [BW-AQ-172]", "pIC50": "< 4.60"}
{"compound": "[N-]=[N+]=NCCOc1cccc2c1C(=O)c1c(OCCN=[N+]=[N-])cc(N)cc1C2=O [BW-AQ-123]", "pIC50": "< 5.80"}
{"compound": "C=CC(=O)Nc1cc(OCC)c2c(c1)C(=O)c1cccc(OCC)c1C2=O [BW-AQ-158]", "pIC50": "> 5.49"}
{"compound": "[N-]=[N+]=NCCOc1cccc2c1C(=O)c1c(OCCN=[N+]=[N-])cc(C(=O)N=[N+]=[N-])cc1C2=O [BW-AQ-122]", "pIC50": "< 5.80"}
{"compound": "COc1cccc2c1C(=O)c1c(OC)cc(N)cc1C2=O [BW-AQ-145]", "pIC50": "< 4.60"}
{"compound": "COc1cccc2c1C(=O)c1c(OC)cc(NC(=O)CN=[N+]=[N-])cc1C2=O [BW-AQ-137]", "pIC50": "< 5.80"}

Next, consider the following compound.
Request: For the compound CCOc1cccc2c1C(=O)c1c(OCC)cc(NC(=O)CNC)cc1C2=O [BW-AQ-167] , give its measured pIC50 value.
Result: 4.67

----------
Test system: HeLa
Experiment: MTT cytotoxicity assay, HeLa (Table 2)
Settings: read-out: IC50 (μM) against HeLa; MTT, 48 h incubation; Table 2
Protocol: The in vitro cytotoxicity studies of the synthesized compounds were performed in three different cell lines (HeLa, Hek, and KB). The activities of the herein described analogues were compared to that of rhein itself and doxorubicin. Due to the poor solubility of the compounds, all of the solutions used for biological testing were prepared using DMSO as solvent.
Examples of compounds with documented IC50 follow.
Kindly answer with a numeric value in µM, unit omitted.

// below: answered compounds
{"mol": "O=C(CCl)NCCCCNC(=O)c1cc(O)c2c(c1)C(=O)c1cccc(O)c1C2=O", "IC50 / µM": 16}
{"mol": "O=C(CI)NCCCOCCOCCOCCCNC(=O)c1cc(O)c2c(c1)C(=O)c1cccc(O)c1C2=O", "IC50 / µM": 5.8}

Let us examine a further case.
Request: For HeLa, give IC50 of the listed compound: O=C(CBr)NCCCCNC(=O)c1cc(O)c2c(c1)C(=O)c1cccc(O)c1C2=O
Result: 3

----------
Test system: HeLa
Assay: Cytotoxicity against cancer cell lines (Example 5), Hela
Type: cell-based
Conditions: Tables 5-12
# IC50 annotations

{"compound": "CCOc1cccc2c1C(=O)c1c(OCC)cc(NC(=O)COCc3ccccc3)cc1C2=O [BW-AQ-182]", "experimental endpoint": "IC50", "experimental value": "47.3 µM"}
{"compound": "[N-]=[N+]=NCCOc1cccc2c1C(=O)c1c(OCCN=[N+]=[N-])cc(N)cc1C2=O [BW-AQ-123]", "experimental endpoint": "IC50", "experimental value": "> 50 µM"}
{"compound": "COc1cccc2c1C(=O)c1c(OC)cc(NC(=O)CN=[N+]=[N-])cc1C2=O [BW-AQ-137]", "experimental endpoint": "IC50", "experimental value": "24.6 µM"}
{"compound": "C=CCOc1cccc2c1C(=O)c1c(OCC=C)cc(C(=O)O)cc1C2=O [BW-AQ-153]", "experimental endpoint": "IC50", "experimental value": "> 50 µM"}
{"compound": "[N-]=[N+]=NC(=O)c1cc(OCc2ccccc2)c2c(c1)C(=O)c1cccc(OCc3ccccc3)c1C2=O [BW-AQ-149]", "experimental endpoint": "IC50", "experimental value": "> 50 µM"}
{"compound": "C=CCOc1cccc2c1C(=O)c1c(OCC=C)cc(C(=O)N=[N+]=[N-])cc1C2=O [BW-AQ-154]", "experimental endpoint": "IC50", "experimental value": "24.3 µM"}
{"compound": "COCC(=O)Nc1cc(OC)c2c(c1)C(=O)c1cccc(OC)c1C2=O [BW-AQ-170]", "experimental endpoint": "IC50", "experimental value": "> 50 µM"}
{"compound": "COC(=O)c1cc(OCCN=[N+]=[N-])c2c(c1)C(=O)c1cccc(OCCN=[N+]=[N-])c1C2=O [BW-AQ-120]", "experimental endpoint": "IC50", "experimental value": "> 12.5 µM"}
{"compound": "C=CCOC(=O)c1cc(OCC=C)c2c(c1)C(=O)c1cccc(OCC=C)c1C2=O [BW-AQ-152]", "experimental endpoint": "IC50", "experimental value": "27.6 µM"}
{"compound": "Nc1cc(OCc2ccccc2)c2c(c1)C(=O)c1cccc(OCc3ccccc3)c1C2=O [BW-AQ-150]", "experimental endpoint": "IC50", "experimental value": "~50 µM"}

Request: Specify reported IC50 for the compound shown: C=CC(=O)Nc1cc(OCC)c2c(c1)C(=O)c1cccc(OCC)c1C2=O [BW-AQ-158]
Result: 19.7 µM

Request: Let me know recorded IC50 for [N-]=[N+]=NCCOc1cccc2c1C(=O)c1c(OCCN=[N+]=[N-])cc(C(=O)O)cc1C2=O [BW-AQ-121] , thanks.
Result: > 12.5 µM

Request: Provide IC50 value for the following compound: CCOc1cccc2c1C(=O)c1c(OCC)cc(NC(=O)CO)cc1C2=O [BW-AQ-157]
Result: 6.35 µM

Request: Look up and report measured IC50 for this entry: O=C1c2cccc(O)c2C(=O)c2c(O)cc(-c3cccs3)cc21 [BW-AQ-140]
Result: 3.1 µM

Request: Respond only with IC50 recorded for COc1cccc2c1C(=O)c1c(OC)cc(NS(=O)(=O)CCl)cc1C2=O [BW-AQ-138]
Result: > 50 µM

Request: Identify the reported IC50 for the following entry. CN1CCN(CC(=O)Nc2cc(O)c3c(c2)C(=O)c2cccc(O)c2C3=O)CC1 [BW-AQ-114]
Result: 3.9 µM

Request: Given the compound CCCOC(=O)c1cc(OCCC)c2c(c1)C(=O)c1cccc(OCCC)c1C2=O [BW-AQ-147] , write its reported IC50.
Result: > 50 µM

Request: Determine from records and report IC50 for COc1cccc2c1C(=O)c1c(OC)cc(NC(=O)CCCCl)cc1C2=O [BW-AQ-174]
Result: > 50 µM
